species on record: Rattus norvegicus; test: Open TG-GATES - Regimen: Single; assay type: toxicity, organism-based, Sprague-Dawley; design: regimen Single, gender Male, age 6 weeks; settings: in vivo, po, 0 mg/kg, 9 h, tissue Blood, route gavage, dose level Control

>  <compound>
C=CCO

>  <measure unit>
fL

>  <MCV>
60.2

$$$$
>  <compound>
O=C1NC(=O)C(c2ccccc2)(c2ccccc2)N1

>  <measure unit>
fL

>  <MCV>
61.1

$$$$
>  <compound>
O=C1CN(/N=C/c2ccc(-c3ccc([N+](=O)[O-])cc3)o2)C(O)=N1

>  <measure unit>
fL

>  <MCV>
64.9

$$$$
>  <compound>
COc1ccc(O)c(C(C)(C)C)c1.COc1ccc(O)cc1C(C)(C)C [BUTYLATED HYDROXYANISOLE]

>  <measure unit>
fL

>  <MCV>
61.5

$$$$
>  <compound>
CS(=O)(=O)Nc1ccc([N+](=O)[O-])cc1Oc1ccccc1 [NIMESULIDE]

>  <measure unit>
fL

>  <MCV>
64.3

$$$$
>  <compound>
COc1ccc(Cl)cc1C(=O)NCCc1ccc(S(=O)(=O)NC(=O)NC2CCCCC2)cc1 [GLYBURIDE]

>  <measure unit>
fL

>  <MCV>
63.6

$$$$
>  <compound>
Cc1cnc(NC(=O)C2=C(O)c3ccccc3S(=O)(=O)N2C)s1

>  <measure unit>
fL

>  <MCV>
64.8

$$$$
>  <compound>
S=C=Nc1cccc2ccccc12 [1-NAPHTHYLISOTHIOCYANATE]

>  <measure unit>
fL

>  <MCV>
60.1

$$$$
>  <compound>
Cn1cnc([N+](=O)[O-])c1Sc1ncnc2nc[nH]c12

>  <measure unit>
fL

>  <MCV>
65

$$$$
>  <compound>
Cc1cccc(Nc2cc(Cl)nc(SCC(=O)O)n2)c1C

>  <measure unit>
fL

>  <MCV>
62.4

$$$$

* * *

organism: Rattus norvegicus; test: Open TG-GATES - Regimen: Daily Repeat; format: toxicity, organism-based, Sprague-Dawley; set-up: regimen Daily Repeat, gender Male, age 6 weeks; settings: in vivo, po, 0 mg/kg, […], tissue Blood, route gavage, dose level Control, time 28 day
# key: entry, value: WBC

>  <molecule>
CS(=O)(=O)Nc1ccc([N+](=O)[O-])cc1Oc1ccccc1 [NIMESULIDE]

>  <measure unit>
x10_2/uL

>  <WBC>
120.2

$$$$
>  <molecule>
O=P1(N(CCCl)CCCl)NCCCO1 (stereo unspecified) [CYCLOPHOSPHAMIDE ANHYDROUS]

>  <measure unit>
x10_2/uL

>  <WBC>
112.3

$$$$
>  <molecule>
Cc1cnc(NC(=O)C2=C(O)c3ccccc3S(=O)(=O)N2C)s1 [MELOXICAM]

>  <measure unit>
x10_2/uL

>  <WBC>
144.5

$$$$
>  <molecule>
Cc1cccc(Nc2cc(Cl)nc(SCC(=O)O)n2)c1C [PIRINIXIC ACID]

>  <measure unit>
x10_2/uL

>  <WBC>
82.2

$$$$
>  <molecule>
COc1ccc(O)c(C(C)(C)C)c1.COc1ccc(O)cc1C(C)(C)C [BUTYLATED HYDROXYANISOLE]

>  <measure unit>
x10_2/uL

>  <WBC>
105.1

$$$$
>  <molecule>
C=CCO [ALLYL ALCOHOL]

>  <measure unit>
x10_2/uL

>  <WBC>
94.8

$$$$
>  <molecule>
O=C1NC(=O)C(c2ccccc2)(c2ccccc2)N1 [PHENYTOIN]

>  <measure unit>
x10_2/uL

>  <WBC>
147.1

$$$$
>  <molecule>
COc1ccc(Cl)cc1C(=O)NCCc1ccc(S(=O)(=O)NC(=O)NC2CCCCC2)cc1 [GLYBURIDE]

>  <measure unit>
x10_2/uL

>  <WBC>
133.4

$$$$
>  <molecule>
Cn1cnc([N+](=O)[O-])c1Sc1ncnc2nc[nH]c12 [AZATHIOPRINE]

>  <measure unit>
x10_2/uL

>  <WBC>
122.9

$$$$
>  <molecule>
O=C1CN(/N=C/c2ccc(-c3ccc([N+](=O)[O-])cc3)o2)C(O)=N1 [DANTROLENE]

>  <measure unit>
x10_2/uL

>  <WBC>
103.3

$$$$
>  <molecule>
Cn1c(=O)c2c(ncn2C)n(C)c1=O [CAFFEINE]

>  <measure unit>
x10_2/uL

>  <WBC>
103.3

$$$$

* * *

species: Rattus norvegicus; assay: Open TG-GATES - Regimen: Single; type: toxicity, organism-based, Sprague-Dawley; design: regimen Single, gender Male, age 6 weeks; conditions: in vivo, po, 0 mg/kg, 6 h, tissue Plasma, route gavage, dose level Control
# DBIL annotations
quantity measured: DBIL

>  <molecule>
Cc1cnc(NC(=O)C2=C(O)c3ccccc3S(=O)(=O)N2C)s1

>  <observed measurement>
0.066 mg/dL

$$$$
>  <molecule>
O=C1CN(/N=C/c2ccc(-c3ccc([N+](=O)[O-])cc3)o2)C(O)=N1

>  <observed measurement>
0.064 mg/dL

$$$$
>  <molecule>
CNCCC(Oc1ccc(C(F)(F)F)cc1)c1ccccc1.Cl (stereo unspecified) [FLUOXETINE HYDROCHLORIDE]

>  <observed measurement>
0.008 mg/dL

$$$$
>  <molecule>
S=C=Nc1cccc2ccccc12 [1-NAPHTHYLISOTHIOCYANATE]

>  <observed measurement>
0.07 mg/dL

$$$$
>  <molecule>
C=CCO

>  <observed measurement>
0.086 mg/dL

$$$$
>  <molecule>
Cn1cnc([N+](=O)[O-])c1Sc1ncnc2nc[nH]c12

>  <observed measurement>
0.002 mg/dL

$$$$
>  <molecule>
COc1ccc(O)c(C(C)(C)C)c1.COc1ccc(O)cc1C(C)(C)C [BUTYLATED HYDROXYANISOLE]

>  <observed measurement>
0.026 mg/dL

$$$$
>  <molecule>
COc1ccc(Cl)cc1C(=O)NCCc1ccc(S(=O)(=O)NC(=O)NC2CCCCC2)cc1 [GLYBURIDE]

>  <observed measurement>
0.092 mg/dL

$$$$
>  <molecule>
Cc1cccc(Nc2cc(Cl)nc(SCC(=O)O)n2)c1C

>  <observed measurement>
0.026 mg/dL

$$$$
>  <molecule>
O=C1NC(=O)C(c2ccccc2)(c2ccccc2)N1

>  <observed measurement>
0.018 mg/dL

$$$$
>  <molecule>
CS(=O)(=O)Nc1ccc([N+](=O)[O-])cc1Oc1ccccc1 [NIMESULIDE]

>  <observed measurement>
0.062 mg/dL

$$$$

* * *

species: Rattus norvegicus; test: Open TG-GATES - Regimen: Single; type: toxicity, organism-based, Sprague-Dawley; set-up: regimen Single, gender Male, age 6 weeks; conditions: in vivo, po, 0 mg/kg, 9 h, tissue Plasma, route gavage, dose level Control
Collected Na values appear next to each entry.

>  <molecule>
C=CCO

>  <measure unit>
meq/L

>  <Na>
141

$$$$
>  <molecule>
Cc1cccc(Nc2cc(Cl)nc(SCC(=O)O)n2)c1C

>  <measure unit>
meq/L

>  <Na>
140.8

$$$$
>  <molecule>
CNCCC(Oc1ccc(C(F)(F)F)cc1)c1ccccc1.Cl (stereo unspecified) [FLUOXETINE HYDROCHLORIDE]

>  <measure unit>
meq/L

>  <Na>
139

$$$$
>  <molecule>
COc1ccc(O)c(C(C)(C)C)c1.COc1ccc(O)cc1C(C)(C)C [BUTYLATED HYDROXYANISOLE]

>  <measure unit>
meq/L

>  <Na>
141.8

$$$$
>  <molecule>
COc1ccc(Cl)cc1C(=O)NCCc1ccc(S(=O)(=O)NC(=O)NC2CCCCC2)cc1 [GLYBURIDE]

>  <measure unit>
meq/L

>  <Na>
140.8

$$$$
>  <molecule>
S=C=Nc1cccc2ccccc12 [1-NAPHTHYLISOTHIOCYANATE]

>  <measure unit>
meq/L

>  <Na>
141.8

$$$$
>  <molecule>
O=C1CN(/N=C/c2ccc(-c3ccc([N+](=O)[O-])cc3)o2)C(O)=N1

>  <measure unit>
meq/L

>  <Na>
140

$$$$
>  <molecule>
CS(=O)(=O)Nc1ccc([N+](=O)[O-])cc1Oc1ccccc1 [NIMESULIDE]

>  <measure unit>
meq/L

>  <Na>
138.4

$$$$
>  <molecule>
O=C1NC(=O)C(c2ccccc2)(c2ccccc2)N1

>  <measure unit>
meq/L

>  <Na>
142.4

$$$$
>  <molecule>
Cc1cnc(NC(=O)C2=C(O)c3ccccc3S(=O)(=O)N2C)s1

>  <measure unit>
meq/L

>  <Na>
141.6

$$$$
>  <molecule>
Cn1cnc([N+](=O)[O-])c1Sc1ncnc2nc[nH]c12

>  <measure unit>
meq/L

>  <Na>
141.2

$$$$

* * *

species: Rattus norvegicus; test: Open TG-GATES - Regimen: Daily Repeat; assay type: toxicity, organism-based, Sprague-Dawley; set-up: regimen Daily Repeat, gender Male, age 6 weeks; conditions: in vivo, po, 0 mg/kg, […], tissue Liver, route gavage, dose level Control, time 28 day

>  <molecule>
C=CCO [ALLYL ALCOHOL]

>  <measure unit>
g

>  <LIVER>
16

$$$$
>  <molecule>
COc1ccc(O)c(C(C)(C)C)c1.COc1ccc(O)cc1C(C)(C)C [BUTYLATED HYDROXYANISOLE]

>  <measure unit>
g

>  <LIVER>
16.7

$$$$
>  <molecule>
Cn1cnc([N+](=O)[O-])c1Sc1ncnc2nc[nH]c12 [AZATHIOPRINE]

>  <measure unit>
g

>  <LIVER>
14.3

$$$$
>  <molecule>
CS(=O)(=O)Nc1ccc([N+](=O)[O-])cc1Oc1ccccc1 [NIMESULIDE]

>  <measure unit>
g

>  <LIVER>
16.5

$$$$
>  <molecule>
O=P1(N(CCCl)CCCl)NCCCO1 (stereo not drawn) [CYCLOPHOSPHAMIDE ANHYDROUS]

>  <measure unit>
g

>  <LIVER>
14.2

$$$$
>  <molecule>
Cc1cccc(Nc2cc(Cl)nc(SCC(=O)O)n2)c1C [PIRINIXIC ACID]

>  <measure unit>
g

>  <LIVER>
15.5

$$$$
>  <molecule>
O=C1NC(=O)C(c2ccccc2)(c2ccccc2)N1 [PHENYTOIN]

>  <measure unit>
g

>  <LIVER>
15.6

$$$$
>  <molecule>
COc1ccc(Cl)cc1C(=O)NCCc1ccc(S(=O)(=O)NC(=O)NC2CCCCC2)cc1 [GLYBURIDE]

>  <measure unit>
g

>  <LIVER>
17.3

$$$$

These data points were gathered from ChEMBL document CHEMBL3885861.
